Hey, just so you know, these numbers are from ChEMBL document CHEMBL3232829.

Dear all, this message contains IC50 results, target or system UniProtKB P22303.
Sequence (P22303 whole entry): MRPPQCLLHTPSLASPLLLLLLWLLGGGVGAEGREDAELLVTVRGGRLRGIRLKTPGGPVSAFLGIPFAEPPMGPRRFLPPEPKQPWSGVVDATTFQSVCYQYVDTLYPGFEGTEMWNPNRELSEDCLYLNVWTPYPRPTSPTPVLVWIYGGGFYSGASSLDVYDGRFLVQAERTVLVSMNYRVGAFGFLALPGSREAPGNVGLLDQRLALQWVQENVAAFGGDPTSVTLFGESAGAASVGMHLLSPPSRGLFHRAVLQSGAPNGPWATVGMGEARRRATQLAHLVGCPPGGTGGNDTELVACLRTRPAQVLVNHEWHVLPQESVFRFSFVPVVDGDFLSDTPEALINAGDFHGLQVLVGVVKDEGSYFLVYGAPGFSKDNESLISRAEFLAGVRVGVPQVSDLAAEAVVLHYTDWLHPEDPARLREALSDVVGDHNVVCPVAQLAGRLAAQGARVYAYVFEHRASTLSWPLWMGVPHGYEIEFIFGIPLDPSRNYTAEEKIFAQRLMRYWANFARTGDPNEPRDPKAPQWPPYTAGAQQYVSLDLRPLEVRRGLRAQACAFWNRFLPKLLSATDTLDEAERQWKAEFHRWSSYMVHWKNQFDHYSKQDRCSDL
Note: unit nM is implicit; provide only the numeric part.

CC1=CC2Cc3nc4cc(Cl)ccc4c(NCCCCCCNC(=O)c4cc(O)c5c(c4)C(=O)c4cccc(O)c4C5=O)c3C(C1)C2 (racemic); 1.52

Return IC50 measured with UniProtKB P22303 given this compound: CC1=CC2Cc3nc4cc(Cl)ccc4c(NCCCCCCCNC(=O)c4cc(O)c5c(c4)C(=O)c4cccc(O)c4C5=O)c3C(C1)C2.Cl (racemic)
3.18

Give recorded IC50 with UniProtKB P22303 for the following compound: CC1=CC2Cc3nc4cc(Cl)ccc4c(NCCCCCNC(=O)c4cc(O)c5c(c4)C(=O)c4cccc(O)c4C5=O)c3C(C1)C2.Cl (racemic)
1.07

====

Target: Amyloid-beta precursor protein (Homo sapiens) (UniProt P05067)
Sequence (P05067 whole entry): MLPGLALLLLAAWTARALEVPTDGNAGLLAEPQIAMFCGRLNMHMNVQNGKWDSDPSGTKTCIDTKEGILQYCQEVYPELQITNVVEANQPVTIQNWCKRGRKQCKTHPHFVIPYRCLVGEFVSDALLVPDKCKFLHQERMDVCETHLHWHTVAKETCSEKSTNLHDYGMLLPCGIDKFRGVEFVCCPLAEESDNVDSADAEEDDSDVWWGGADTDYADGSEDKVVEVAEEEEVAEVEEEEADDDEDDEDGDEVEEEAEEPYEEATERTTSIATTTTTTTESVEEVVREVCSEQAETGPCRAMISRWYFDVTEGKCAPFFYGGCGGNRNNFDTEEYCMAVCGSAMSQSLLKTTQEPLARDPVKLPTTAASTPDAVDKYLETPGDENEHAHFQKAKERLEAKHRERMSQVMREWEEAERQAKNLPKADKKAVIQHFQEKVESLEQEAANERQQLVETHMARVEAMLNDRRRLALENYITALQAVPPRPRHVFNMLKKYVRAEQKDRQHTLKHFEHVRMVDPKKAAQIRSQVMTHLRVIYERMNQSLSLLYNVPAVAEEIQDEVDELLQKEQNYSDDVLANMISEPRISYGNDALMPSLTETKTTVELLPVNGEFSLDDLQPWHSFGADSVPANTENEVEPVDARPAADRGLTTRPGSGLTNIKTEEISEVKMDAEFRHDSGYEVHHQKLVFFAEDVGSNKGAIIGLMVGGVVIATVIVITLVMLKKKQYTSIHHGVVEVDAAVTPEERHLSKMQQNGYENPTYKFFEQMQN
Assay: Inhibition of amyloid beta-42 (unknown origin) aggregation assessed as amyloid fibril formation at 10 uM after 24 hrs by thioflavin T fluorescence method
Measured inhibition, listed per entry for reference.
Number only, in %; omit the unit.

CC1=C[C@H]2Cc3nc4cc(Cl)ccc4c(N)c3[C@@H](C1)C2.Cl; 13.2
CC1=CC2Cc3nc4cc(Cl)ccc4c(NCCCCCCCCCNC(=O)c4cc(O)c5c(c4)C(=O)c4cccc(O)c4C5=O)c3C(C1)C2.Cl (racemic); 38
CC1=CC2Cc3nc4cc(Cl)ccc4c(NCCCCCCCNC(=O)c4cc(O)c5c(c4)C(=O)c4cccc(O)c4C5=O)c3C(C1)C2.Cl (racemic); 40.6
CC1=C[C@H]2Cc3nc4cc(Cl)ccc4c(NCCCCCCCCCNC(=O)c4cc(O)c5c(c4)C(=O)c4cccc(O)c4C5=O)c3[C@@H](C1)C2.Cl; 38.4
CC1=CC2Cc3nc4cc(Cl)ccc4c(NCCCCCCCCCCNC(=O)c4cc(O)c5c(c4)C(=O)c4cccc(O)c4C5=O)c3C(C1)C2.Cl (racemic); 40.9
CC1=CC2Cc3nc4cc(Cl)ccc4c(NCCCCCCCCCCCNC(=O)c4cc(O)c5c(c4)C(=O)c4cccc(O)c4C5=O)c3C(C1)C2.Cl (racemic); 35.3
CC1=CC2Cc3nc4cc(Cl)ccc4c(NCCCCCNC(=O)c4cc(O)c5c(c4)C(=O)c4cccc(O)c4C5=O)c3C(C1)C2.Cl (racemic); 38.7

Please find the next compound below.
Given CC1=CC2Cc3nc4cc(Cl)ccc4c(NCCCCCCNC(=O)c4cc(O)c5c(c4)C(=O)c4cccc(O)c4C5=O)c3C(C1)C2 (racemic) , state its recorded inhibition.
40.8
